Test system: SF-268
Test: NCI tumour cell line growth inhibition, 48 h
The source made the active and inactive calls. Rule as the data show it: active = GI50 up to about 1.1 µM and inactive = higher.
Give your call using only these classes: active, inactive

# count of solved cases: 5
> print(dat)
                                   compound  classification
1  NC1OC(COC(=O)c2ccccc2)C(O)C(OC(=O)c2ccccc2)C1OC(=O)c1ccccc1 (stereo not drawn)        inactive
2  COC(=O)C1=C(O)C(C(=O)OC)[C@]2(O)[C@H](C(=O)OC)[C@H]1C[C@@H](c1ccc(Cl)cc1Cl)[C@H]2C(=O)OC (stereo partly drawn)        inactive
3  CC(=O)[C@@]1(C)CC2(CCN(C)CC2)OC1C (stereo partly drawn)        inactive
4  CC(C)c1ccc(O)c(=O)cc1 [GAMMA-THUJAPLICIN]        inactive
5  OC1CCCC1C(O)(C(F)(F)F)C(F)(F)F (stereo not drawn)        inactive

I would be grateful if you could indicate the recorded call for CN1c2ccccc2C2c3c(O)ccc(O)c3C=C([N+](=O)[O-])C21 (stereo not drawn) .
active

I would be grateful if you could indicate the recorded call for CC(=O)Oc1ccc(C)c2c1[C@H]1CC[C@]3(C)[C@@H](OC(C)=O)CC[C@H]3[C@@H]1CC2 .
inactive

I would be grateful if you could indicate the recorded call for N=C(c1ccc(-c2cn3cc(C(=N)N4CCCC4)ccc3n2)cc1)N1CCCC1 .
inactive

I would be grateful if you could indicate the recorded call for O=C(O)c1c2c(c(C(=O)O)c3ccccc13)-c1ccccc1-2 .
inactive

I would be grateful if you could indicate the recorded call for CCc1cc(CCC(=O)Nc2c(C)cccc2C)n[nH]1 .
inactive

I would be grateful if you could indicate the recorded call for O=C(CO)C1CC2C=CC1C2 (stereo not drawn) .
inactive

I would be grateful if you could indicate the recorded call for CC(NC(=O)NC(C)(C)C)NC(=O)C(N)CC(=O)O (stereo not drawn) .
inactive

I would be grateful if you could indicate the recorded call for O=C1NC2c3c(I)sc(I)c3/C(=N\O)C2O1 (stereo not drawn) .
inactive
